- System: Rattus norvegicus
- assay_method_text: Antiallergic activity in iv dosed sensitized Sprague-Dawley rat assessed as inhibition of passive cutaneous anaphylaxis
- Type: functional
- condition_summary: read-out: ID50 (the source's name)

molecule | ED50
O=C([O-])c1cc(=O)c2c(o1)c(Cl)cc1c(=O)cc(C(=O)[O-])oc12.[Na+].[Na+] | > 10 mg/kg
Cc1c2oc(C(=O)[O-])cc(=O)c2cc2c(=O)cc(C(=O)[O-])oc12.[Na+].[Na+] | 0.25 mg/kg
O=C([O-])c1cc(=O)c2c(o1)c1c(c3c(=O)cc(C(=O)[O-])oc32)OCC1.[Na+].[Na+] | 0.35 mg/kg
C=CCOc1cc2oc(C(=O)[O-])cc(=O)c2c2oc(C(=O)[O-])cc(=O)c12.[Na+].[Na+] | 0.62 mg/kg
